# System: T-Rex 293 cell line SC3 cells lacking increased expression of androgen receptor protein
# assay explanation: Cellular growth inhibition assay, T-Rex 293 SC3 cells without doxycycline (CellTiter-Glo, 72 hours)
# Type: cell-based
# measurement conditions: 72 h, T-Rex 293 cell line SC3 cells not exposed to doxycycline (lacking increased androgen receptor expression)
readout label: GI50

Cc1sc2c(c1C)C(c1ccc(C[C@H]3C[C@H](C4CCCN(c5ccc(C(=O)N[C@H]6CC[C@H](Oc7ccc(C#N)c(Cl)c7)CC6)nn5)C4)C3)cc1)=N[C@@H](Cc1ncco1)c1nnc(C)n1-2 (some centres unmarked) = > 3000 nM
CCNC(=O)C[C@@H]1N=C(c2ccc(OC3CN(c4ccc(C(=O)N[C@H]5CC[C@H](Oc6ccc(C#N)c(Cl)c6)CC5)nn4)C3)cc2)c2c(sc(C)c2C)-n2c(C)nnc21 = 500 to 1500 nM
Cc1sc2c(c1C)C(c1ccc(N3CCC4(CCCN(c5ccc(C(=O)N[C@H]6CC[C@H](Oc7ccc(C#N)c(Cl)c7)CC6)nn5)C4)CC3)cc1)=NC(C(F)(F)F)c1nnc(C)n1-2 (some centres unmarked) = > 3000 nM
Cc1sc2c(c1C)C(c1ccc(C3CN(C4CCN(c5ccc(C(=O)N[C@H]6CC[C@H](Oc7ccc(C#N)c(Cl)c7)CC6)nn5)CC4)C3)cc1)=NC1(CC1)c1nnc(C)n1-2 = 1500 to 3000 nM
Cc1sc2c(c1C)C(c1ccc(C[C@H]3CC[C@]4(C3)CN(c3ccc(C(=O)N[C@H]5CC[C@H](Oc6ccc(C#N)c(Cl)c6)CC5)nn3)CCO4)cc1)=N[C@@H](Cc1ncco1)c1nnc(C)n1-2 = < 500 nM
CCNC(=O)C[C@@H]1N=C(c2ccc(N3CC4(C3)CN(c3ccc(C(=O)N[C@H]5CC[C@H](Oc6ccc(C#N)c(Cl)c6)CC5)nn3)C4)cc2)c2c(sc(C)c2C)-n2c(C)nnc21 = 500 to 1500 nM
Cc1sc2c(c1C)C(c1cccc(CN3CCC4(CC3)CCN(c3ccc(C(=O)N[C@H]5CC[C@H](Oc6ccc(C#N)c(Cl)c6)CC5)nn3)C4)c1)=N[C@@H](C)c1nnc(C)n1-2 = 500 to 1500 nM
Cc1sc2c(c1C)C(c1ccc(N3CCC4(CCN(c5ccc(C(=O)N[C@H]6CC[C@H](Oc7ccc(C#N)c(Cl)c7)CC6)nn5)CC4)C3)cc1)=N[C@@H](C)c1nnc(C)n1-2 = < 500 nM
Cc1sc2c(c1C)C(c1ccc(CCCC3CCN(c4ccc(C(=O)N[C@H]5CC[C@H](Oc6ccc(C#N)c(Cl)c6)CC5)nn4)CC3)cc1)=NC(Cc1ncco1)c1nnc(C)n1-2 (some centres unmarked) = < 500 nM
Cc1sc2c(c1C)C(c1ccc(C#CCC3CCN(c4ccc(C(=O)N[C@H]5CC[C@H](Oc6ccc(C#N)c(Cl)c6)CC5)nn4)CC3)cc1)=N[C@@H](Cc1ncco1)c1nnc(C)n1-2 = < 500 nM
Cc1sc2c(c1C)C(c1ccc(CCCN3[C@H](C)CN(c4ccc(C(=O)N[C@H]5CC[C@H](Oc6ccc(C#N)c(Cl)c6)CC5)nn4)C[C@@H]3C)cc1)=N[C@@H](Cc1ncco1)c1nnc(C)n1-2 = < 500 nM
Cc1sc2c(c1C)C(c1ccc(N3CCC4(CC3)CCN(c3ccc(C(=O)N[C@H]5CC[C@H](Oc6ccc(C#N)c(Cl)c6)CC5)nn3)C4)cc1)=N[C@@H](Cc1ncco1)c1nnc(C)n1-2 = < 500 nM
Cc1sc2c(c1C)C(c1ccccc1OC1CCN(c3ccc(C(=O)N[C@H]4CC[C@H](Oc5ccc(C#N)c(Cl)c5)CC4)nn3)CC1)=N[C@@H](C)c1nnc(C)n1-2 = > 3000 nM
Cc1sc2c(c1C)C(c1ccc(NCC3(F)CCN(c4ncc(C(=O)N[C@H]5CC[C@H](Oc6ccc(C#N)c(Cl)c6)CC5)cn4)CC3)cc1)=NC(Cc1ncco1)c1nnc(C)n1-2 (some centres unmarked) = < 500 nM
Cc1sc2c(c1C)C(c1ccc(N3CCCC4(CCN(c5ncc(C(=O)N[C@H]6CC[C@H](Oc7ccc(C#N)c(Cl)c7)CC6)cn5)CC4)C3)cc1)=NC(Cc1ncco1)c1nnc(C)n1-2 (some centres unmarked) = > 3000 nM
Cc1sc2c(c1C)C(c1ccc(C[C@H]3C[C@H]([C@H]4CCCN(c5ccc(C(=O)N[C@H]6CC[C@H](Oc7ccc(C#N)c(Cl)c7)CC6)nn5)C4)C3)cc1)=N[C@@H](Cc1ncco1)c1nnc(C)n1-2 = < 500 nM
CC1=NN=C2C1c1sc(C)c(C)c1C(c1ccc(C#CC3C4CN(c5ccc(C(=O)N[C@H]6CC[C@H](Oc7ccc(C#N)c(Cl)c7)CC6)nn5)CC34)cc1)=N[C@H]2Cc1ncco1 (some centres unmarked) = > 3000 nM
Cc1sc2c(c1C)C(c1ccc(C3CC3C3CC4(CCN(c5ccc(C(=O)N[C@H]6CC[C@H](Oc7ccc(C#N)c(Cl)c7)CC6)nn5)CC4)C3)cc1)=N[C@@H](Cc1ncco1)c1nnc(C)n1-2 (some centres unmarked) = < 500 nM
Cc1sc2c(c1C)C(c1ccc(N3CCC4(CC3)CCN(c3ccc(C(=O)N[C@H]5CC[C@H](Oc6ccc(C#N)c(Cl)c6)CC5)nn3)CC4)cc1)=NC1(CC1)c1nnc(C)n1-2 = > 3000 nM
CCNC(=O)C[C@@H]1N=C(c2ccc(N3CC(OC4CCN(c5ccc(C(=O)N[C@H]6CC[C@H](Oc7ccc(C#N)c(Cl)c7)CC6)nn5)CC4)C3)cc2)c2c(sc(C)c2C)-n2c(C)nnc21 = < 500 nM

* * *

# Tested on: T-Rex 293 cell line SC3 cells lacking increased expression of androgen receptor protein
# assay explanation: Cellular growth inhibition assay, T-Rex 293 SC3 cells without doxycycline (CellTiter-Glo, 72 hours)
# Assay type: cell-based
# measurement conditions: 72 h, T-Rex 293 cell line SC3 cells not exposed to doxycycline (lacking increased androgen receptor expression)
As shown below, each of these compounds has a reported GI50 value.
readout label: GI50

COC[C@@H]1N=C(c2ccc(N3CCC4(CC3)CCN(c3ccc(C(=O)N[C@H]5CC[C@H](Oc6ccc(C#N)c(Cl)c6)CC5)nn3)C4)cc2)c2c(sc(C)c2C)-n2c(C)nnc21 = < 500 nM
Cc1sc2c(c1C)C(c1ccc(N3CCCC(CN(C)c4ncc(C(=O)N[C@H]5CC[C@H](Oc6ccc(C#N)c(Cl)c6)CC5)cn4)C3)cc1)=NC(Cc1ncco1)c1nnc(C)n1-2 (stereo partly drawn) = < 500 nM
COCC[C@@H]1N=C(c2ccc(CC3CC4(CCN(c5ccc(C(=O)N[C@H]6CC[C@H](Oc7ccc(C#N)c(Cl)c7)CC6)nn5)CC4)C3)cc2)c2c(sc(C)c2C)-n2c(C)nnc21 = 500 to 1500 nM

* * *

# Tested on: T-Rex 293 cell line SC3 cells lacking increased expression of androgen receptor protein
# assay explanation: Cellular growth inhibition assay, T-Rex 293 SC3 cells without doxycycline (CellTiter-Glo, 72 hours)
# Format: cell-based
# measurement conditions: 72 h, T-Rex 293 cell line SC3 cells not exposed to doxycycline (lacking increased androgen receptor expression)
# Method: The following types of cells were prepared for this experiment: (i) a T-Rex 293 cell line having increased expression of androgen receptor protein due to exposure to doxycycline and (ii) a T-Rex 293 cell line lacking increased expression of androgen receptor protein. Ability of the test compounds to inhibit proliferation of the foregoing cell types was evaluated according to the procedures set forth below. […] Data was normalized using zero luminescence for baseline. […]
readout label: GI50

Cc1sc2c(c1C)C(c1ccc(C[C@H]3C[C@@]4(CCCN(c5ccc(C(=O)N[C@H]6CC[C@H](Oc7ccc(C#N)c(Cl)c7)CC6)nn5)C4)C3)cc1)=N[C@@H](Cc1ncco1)c1nnc(C)n1-2 = > 3000 nM
Cc1sc2c(c1C)C(c1ccc(CC3CN([C@H]4CCN(c5ccc(C(=O)N[C@H]6CC[C@H](Oc7ccc(C#N)c(Cl)c7)CC6)nn5)C4)C3)cc1)=N[C@@H](Cc1ncco1)c1nnc(C)n1-2 = < 500 nM
Cc1sc2c(c1C)C(c1ccc(CC[C@H]3CCCN(c4ccc(C(=O)N[C@H]5CC[C@H](Oc6ccc(C#N)c(Cl)c6)CC5)nn4)C3)cc1)=N[C@@H](Cc1ncco1)c1nnc(C)n1-2 = < 500 nM
Cc1sc2c(c1C)C(c1ccc(C=C3CC4(CCCN(c5ccc(C(=O)NC6CCC(Oc7ccc(C#N)c(Cl)c7)CC6)nn5)C4)C3)cc1)=N[C@@H](Cc1ncco1)c1nnc(C)n1-2 (some centres unmarked) = < 500 nM
Cc1sc2c(c1C)C(c1ccc(C#CC3CC4(C3)CN(c3ccc(C(=O)N[C@H]5CC[C@H](Oc6ccc(C#N)c(Cl)c6)CC5)nn3)C4)cc1)=NCc1nnc(C)n1-2 = < 500 nM

* * *

This section presents compounds with their documented GI50 values.
# Tested on: T-Rex 293 cell line SC3 cells lacking increased expression of androgen receptor protein
# assay explanation: Cellular growth inhibition assay, T-Rex 293 SC3 cells without doxycycline (CellTiter-Glo, 72 hours)
# Type: cell-based
# measurement conditions: 72 h, T-Rex 293 cell line SC3 cells not exposed to doxycycline (lacking increased androgen receptor expression)
# Description: The following types of cells were prepared for this experiment: (i) a T-Rex 293 cell line having increased expression of androgen receptor protein due to exposure to doxycycline and (ii) a T-Rex 293 cell line lacking increased expression of androgen receptor protein. Ability of the test compounds to inhibit proliferation of the foregoing cell types was evaluated according to the procedures set forth below. […] Data was normalized using zero luminescence for baseline. […]
readout label: GI50

Cc1sc2c(c1C)C(c1ccc([C@H]3C[C@H]([C@@H]4CCCN(c5ccc(C(=O)N[C@H]6CC[C@H](Oc7ccc(C#N)c(Cl)c7)CC6)nn5)C4)C3)cc1)=N[C@@H](Cc1ncco1)c1nnc(C)n1-2 = < 500 nM
Cc1sc2c(c1C)C(c1ccc(CC[C@H]3C[C@@]4(CCCN(c5ccc(C(=O)N[C@H]6CC[C@H](Oc7ccc(C#N)c(Cl)c7)CC6)nn5)C4)C3)nc1)=N[C@@H](Cc1ncco1)c1nnc(C)n1-2 = < 500 nM
CCNC(=O)C[C@@H]1N=C(c2ccc(OCCN(C)c3ccc(C(=O)N[C@H]4CC[C@H](Oc5ccc(C#N)c(Cl)c5)CC4)nn3)cc2)c2c(sc(C)c2C)-n2c(C)nnc21 = 500 to 1500 nM
Cc1sc2c(c1C)C(c1ccc(CCC[C@@H]3CCCN(c4ccc(C(=O)N[C@H]5CC[C@H](Oc6ccc(C#N)c(Cl)c6)CC5)nn4)C3)cc1)=N[C@@H](C)c1nnc(C)n1-2 = > 3000 nM
CC[C@@H]1N=C(c2ccc(OC3(C)CC4(CN(c5ccc(C(=O)N[C@H]6CC[C@H](Oc7ccc(C#N)c(Cl)c7)CC6)nn5)C4)C3)cc2)c2c(sc(C)c2C)-n2c(C)nnc21 = < 500 nM

This collection of values is drawn from patent US20260109707A1.
